Form field: melting point (one value per entry).
PROPERTY NAME: melting point (°C)

INSERT INTO results (molecule, experimental_value) VALUES
  ('CC(C(=O)O)c1ccc(N2CC=CC2)c(Cl)c1 (stereo not given)', 99),
  ('OCCc1ccccn1', -7.8),
  ('CCC1(O)CCCCC1', 34.5),
  ('FC(F)(F)C(F)(F)C(F)(F)C(F)(F)C(F)(F)I', -50),
  ('C#CCCO', -63.6),
  ('CC(C)=CC1C(C(=O)OCN2C(=O)C3=C(CCCC3)C2=O)C1(C)C (stereo not given)', 69),
  ('CNC(=O)Oc1ccccc1C1OCCO1', 114),
  ('NC1=NCC(c2ccccc2)O1 (stereo not given)', 136),
  ('O=C1C(O)=C(Cl)C(=O)c2ccccc21', 216),
  ('C#CC=CC=C', -81);

meta.source: the OPERA property sets (Mansouri et al. 2018)
